# Test system: K562 CRISPRi cells
# test-summary: Perturb-seq pooled growth measurement (sgRNA counts, growth phenotype γ, relative activity)
# Type: cell-based, human
# setup-conditions: pooled growth phenotype γ of the Perturb-seq sgRNA, day 5, K562 CRISPRi cells
# Description: Finally, we sought to use intermediate-activity sgRNAs to explore relationships between expression levels of various genes and the resulting cellular phenotypes. […] In addition to the single-cell transcriptomes, we measured bulk growth phenotypes conferred by sgRNAs in these cells. […]
gamma_day5 strictly under -0.5 means 1.0; at -0.5 or over means 0.0.

Some entries whose results are on file:
Query: Input ALDOA_ + _30077139.23-P1P2_07 (guide GGTCACCAGGCCCCCTTCTG; listed as DNA, chemistry not fully specified) ; condition: gamma_day5 strictly below -0.5. Does it hold?
Reply: 0.0

Query: Input RPS15_ −_1438413.23-P1P2_12 (guide GACCAAAGCGATCTCTTGTG; listed as DNA, chemistry not fully specified) ; condition: gamma_day5 strictly below -0.5. Does it hold?
Reply: 0.0

Query: Input DBR1_ + _137893744.23-P1P2_07 (guide GTTTGCAGGGGTCTACACCC; listed as DNA, chemistry not fully specified) ; condition: gamma_day5 strictly below -0.5. Does it hold?
Reply: 1.0

Query: Input CAD_ + _27440280.23-P1P2_07 (guide GGCTGGAGCGAAGCCGGGCG; listed as DNA, chemistry not fully specified) ; condition: gamma_day5 strictly below -0.5. Does it hold?
Reply: 1.0

Query: Input GATA1_ −_48645022.23-P1P2_08 (guide GTGAGCTTTCCACATCCCCA; listed as DNA, chemistry not fully specified) ; condition: gamma_day5 strictly below -0.5. Does it hold?
Reply: 1.0

Let's switch to this substance now.
Query: Input RAN_ + _131356438.23-P1P2_12 (guide GGCGGTCGCTGCGCTTAGGT; listed as DNA, chemistry not fully specified) ; condition: gamma_day5 strictly below -0.5. Does it hold?
Reply: 0.0

Cited source: patent US20220259593A1
